- System: HL-60 RA APML cell line
- experiment notes: Cytotoxicity assay, HL-60 RA
- Type: cell-based, human
- condition summary: APML cell line HL-60 RA; four days in culture; Alamar blue assay or automated microscopy; ± SD, three experiments
pIC50: −log10 of the molar value.
metric name: pIC50

                                   molecule  value_observed
0  CN(C)c1ccc(-c2nc3ncc(Cl)c(N4CCN(CC(=O)Nc5nccs5)CC4)c3[nH]2)cc1 [CCT129202]            5.10
1  COc1cc2c(Nc3ccc(NC(=O)c4ccccc4)cc3)ncnc2cc1OCCCN1CCOCC1 [ZM447439]            6.30
2  CCN1CCN(C(=O)Cc2ccc(Nc3ncc(F)c(Nc4ccc(C(=O)Nc5ccccc5Cl)cc4)n3)cc2)CC1 [Aurora A Inhibitor I]            6.00

---

- System: Patient #3 AML/CML primary leukemia cells
- experiment notes: Cytotoxicity assay, primary sample Patient #3
- Format: cell-based, human
- condition summary: Homo sapiens, 96 h, four days in culture, Alamar blue assay or automated microscopy, one complete study
Let's look at some compounds and their measured IC50.
metric name: IC50

>>> print(df.to_string())
                            smiles_structure                             tested_system  value_observed
 0  Cc1cc(Nc2cc(N3CCN(C)CC3)nc(Sc3ccc(NC(=O)C4CC4)cc3)n2)[nH]n1  Patient #3 AML/CML primary leukemia cells            2 µM
 1  COc1cc(Nc2ncc3c(n2)-c2ccc(Cl)cc2C(c2c(F)cccc2OC)=NC3)ccc1C(=O)O  Patient #3 AML/CML primary leukemia cells          0.7 µM
 2  CCc1cccc(CC)c1NC(=O)N1Cc2n[nH]c(NC(=O)c3ccc(N4CCN(C)CC4)cc3)c2C1  Patient #3 AML/CML primary leukemia cells         > 10 µM
 3  O=C(Nc1cccc(Cl)c1)Nc1ncc(CCNc2ncnc3ccsc23)s1  Patient #3 AML/CML primary leukemia cells            4 µM
 4  Cc1cc(Nc2cc(N3CCN(C)CC3)nc(/C=C/c3ccccc3)n2)n[nH]1  Patient #3 AML/CML primary leukemia cells            4 µM
 5  CO[C@@H](C(=O)N1Cc2n[nH]c(NC(=O)c3ccc(N4CCN(C)CC4)cc3)c2C1)c1ccccc1  Patient #3 AML/CML primary leukemia cells         > 10 µM
 6  Cc1nc(N)sc1-c1ccnc(Nc2ccc(N3CCOCC3)cc2)n1  Patient #3 AML/CML primary leukemia cells         > 10 µM
 7  CCS(=O)(=O)Nc1ccc2c(c1)/C(=C(/Nc1ccc(CN3CCCCC3)cc1)c1ccccc1)C(=O)N2  Patient #3 AML/CML primary leukemia cells            3 µM
 8  O=C(Nc1c[nH]nc1-c1nc2ccc(CN3CCOCC3)cc2[nH]1)NC1CC1  Patient #3 AML/CML primary leukemia cells            1 µM
 9  CCN(CCCOc1ccc2c(Nc3cc(CC(=O)Nc4cccc(F)c4)n[nH]3)ncnc2c1)CCOP(=O)(O)O  Patient #3 AML/CML primary leukemia cells         > 10 µM
10  Nc1nc(Nc2ccc(S(N)(=O)=O)cc2)nn1C(=O)c1c(F)cccc1F  Patient #3 AML/CML primary leukemia cells         > 10 µM

---

- Tested on: Patient #5 ALL/AML primary leukemia cells
- experiment notes: Cytotoxicity assay, primary sample Patient #5
- Format: cell-based, human
- condition summary: primary sample; four days in culture; Alamar blue assay or automated microscopy; one complete study; read-out: IC50, Patient #5 ALL/AML
Let's look at some compounds and their measured IC50.
metric name: IC50 (nM)

>>> df
                           smiles_structure                             tested_system  result_unit  value_observed
0  CN(C)c1ccc(-c2nc3ncc(Cl)c(N4CCN(CC(=O)Nc5nccs5)CC4)c3[nH]2)cc1  Patient #5 ALL/AML primary leukemia cells           nM              70
1  CCN1CCN(C(=O)Cc2ccc(Nc3ncc(F)c(Nc4ccc(C(=O)Nc5ccccc5Cl)cc4)n3)cc2)CC1  Patient #5 ALL/AML primary leukemia cells           nM               6
2  COc1cc2c(Nc3ccc(NC(=O)c4ccccc4)cc3)ncnc2cc1OCCCN1CCOCC1  Patient #5 ALL/AML primary leukemia cells           nM               9

---

- Test system: Molm13 AML cell line
- experiment notes: Cytotoxicity assay, Molm13
- Assay type: cell-based, human
- condition summary: Homo sapiens, MOLM-13, 96 h, four days in culture, Alamar blue assay or automated microscopy, ± SD, three experiments
metric name: IC50 (nM)

>>> print(df.to_string())
                           smiles_structure  value_relation_sign  value_observed
0  Nc1nc(Nc2ccc(S(N)(=O)=O)cc2)nn1C(=O)c1c(F)cccc1F                    =            2000
1  CCS(=O)(=O)Nc1ccc2c(c1)/C(=C(/Nc1ccc(CN3CCCCC3)cc1)c1ccccc1)C(=O)N2                    =             0.3
2  O=C(Nc1c[nH]nc1-c1nc2ccc(CN3CCOCC3)cc2[nH]1)NC1CC1                    =               5
3  CO[C@@H](C(=O)N1Cc2n[nH]c(NC(=O)c3ccc(N4CCN(C)CC4)cc3)c2C1)c1ccccc1                    =               6
4  COc1cc(Nc2ncc3c(n2)-c2ccc(Cl)cc2C(c2c(F)cccc2OC)=NC3)ccc1C(=O)O                    =               4
5  Cc1cc(Nc2cc(N3CCN(C)CC3)nc(/C=C/c3ccccc3)n2)n[nH]1                    =              40
6  CCN(CCCOc1ccc2c(Nc3cc(CC(=O)Nc4cccc(F)c4)n[nH]3)ncnc2c1)CCOP(=O)(O)O                    =               7
7  O=C(Nc1cccc(Cl)c1)Nc1ncc(CCNc2ncnc3ccsc23)s1                    <           0.001

---

- System: Nalm6 B-ALL cell line
- experiment notes: Cytotoxicity assay, Nalm6
- Assay type: cell-based, human
- condition summary: Homo sapiens, NALM-6, 96 h, four days in culture, Alamar blue assay or automated microscopy, ± SD, three experiments
pIC50: −log10 of the molar value.
metric name: pIC50

>>> print(df.to_string())
                           smiles_structure  value_relation_sign  value_observed
0  O=C(Nc1cccc(Cl)c1)Nc1ncc(CCNc2ncnc3ccsc23)s1                    >           12.00
1  CCc1cccc(CC)c1NC(=O)N1Cc2n[nH]c(NC(=O)c3ccc(N4CCN(C)CC4)cc3)c2C1                    =            6.40
2  Nc1nc(Nc2ccc(S(N)(=O)=O)cc2)nn1C(=O)c1c(F)cccc1F                    =            6.00
3  CCS(=O)(=O)Nc1ccc2c(c1)/C(=C(/Nc1ccc(CN3CCCCC3)cc1)c1ccccc1)C(=O)N2                    =           11.40

---

- Test system: SEM B-ALL cell line
- experiment notes: Cytotoxicity assay, SEM
- Type: cell-based
- condition summary: Homo sapiens, 96 h, four days in culture, Alamar blue assay or automated microscopy, ± SD, three experiments
pIC50: −log10 of the molar value.
metric name: pIC50

>>> df
                                    molecule  metric_name  value_relation_sign  value_observed
 0  CCc1cccc(CC)c1NC(=O)N1Cc2n[nH]c(NC(=O)c3ccc(N4CCN(C)CC4)cc3)c2C1 [PHA-680632]        pIC50                    =            6.10
 1  O=C(Nc1c[nH]nc1-c1nc2ccc(CN3CCOCC3)cc2[nH]1)NC1CC1 [AT9283]        pIC50                    =            7.40
 2  O=C(Nc1cccc(Cl)c1)Nc1ncc(CCNc2ncnc3ccsc23)s1 [SNS-314]        pIC50                    >           12.00
 3  CCS(=O)(=O)Nc1ccc2c(c1)/C(=C(/Nc1ccc(CN3CCCCC3)cc1)c1ccccc1)C(=O)N2 [Hesperadin]        pIC50                    =            9.00
 4  Cc1cc(Nc2cc(N3CCN(C)CC3)nc(Sc3ccc(NC(=O)C4CC4)cc3)n2)[nH]n1 [VX-680]        pIC50                    =            7.22
 5  CO[C@@H](C(=O)N1Cc2n[nH]c(NC(=O)c3ccc(N4CCN(C)CC4)cc3)c2C1)c1ccccc1 [PHA-739358]        pIC50                    =            7.10
 6  Nc1nc(Nc2ccc(S(N)(=O)=O)cc2)nn1C(=O)c1c(F)cccc1F [JNJ-7706621]        pIC50                    =            6.15
 7  Cc1nc(N)sc1-c1ccnc(Nc2ccc(N3CCOCC3)cc2)n1 [CYC116]        pIC50                    =            7.00
 8  CCN(CCCOc1ccc2c(Nc3cc(CC(=O)Nc4cccc(F)c4)n[nH]3)ncnc2c1)CCOP(=O)(O)O [AZD1152]        pIC50                    =            7.00
 9  Cc1cc(Nc2cc(N3CCN(C)CC3)nc(/C=C/c3ccccc3)n2)n[nH]1 [ENMD-2076]        pIC50                    =            6.30
10  COc1cc(Nc2ncc3c(n2)-c2ccc(Cl)cc2C(c2c(F)cccc2OC)=NC3)ccc1C(=O)O [MLN8237]        pIC50                    =            8.40
